Measured IC50 accompanies every entry in the list below.
# assayed target: recombinant human Flag-tagged PARP7 (amino acids 456-657) (Homo sapiens)
# Construct: recombinant human Flag-tagged PARP7 (amino acids 456-657)
# Sequence (Q7Z3E1 456-657): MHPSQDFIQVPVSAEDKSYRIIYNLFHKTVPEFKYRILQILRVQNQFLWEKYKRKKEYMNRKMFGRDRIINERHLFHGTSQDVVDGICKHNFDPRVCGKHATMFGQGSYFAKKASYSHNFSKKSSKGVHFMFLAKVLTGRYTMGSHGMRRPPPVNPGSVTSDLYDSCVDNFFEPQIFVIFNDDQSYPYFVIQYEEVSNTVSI
# experiment summary: PARP7 biochemical DELFIA assay (auto-MARylation)
# setup conditions: DELFIA readout, IC50 class

• CC(CCOCC(=O)N1CCN(c2ncc(C#N)cn2)CC1)n1nc(C(F)(F)F)c2c(=O)[nH]ncc21 (single isomer, unassigned) [Compound 497] = ≤ 100 nM
• O=C(CCOCCn1cc(C(F)(F)F)c2c(=O)[nH]c(=O)[nH]c21)N1CCN(c2ncc(C(F)(F)F)cn2)CC1 = ≤ 100 nM
• O=C(NCCOCc1cccc2c(=O)[nH]ncc12)C1CCN(c2ncc(C(F)(F)F)cn2)CC1 = 100 to 1000 nM
• Cc1nn(C(C)COCCC(=O)N2CCN(c3ncc(C#N)cn3)CC2)c2cn[nH]c(=O)c12 (single isomer, unassigned) [Compound 263] = ≤ 100 nM
• CC(COCCC(=O)N1CCN(c2ccc(C(F)F)cn2)CC1)n1nc(C(F)(F)F)c2c(=O)[nH]ncc21 (stereo not shown) [Compound 343] = ≤ 100 nM
• CC(COCCC(=O)N1CCN(c2ncc(C(F)(F)F)cn2)CC1)n1cc(C(F)F)c2c(=O)[nH]ncc21 (single isomer, unassigned) [Compound 395] = ≤ 100 nM

IC50 of CC(COCCC(=O)N1CCN(c2ncc(C(F)(F)F)cn2)CC1)c1ccc(Cl)c2c(=O)[nH]ncc12 (stereo not shown) [Compound 400] , assay on recombinant human Flag-tagged PARP7 (amino acids 456-657) (Homo sapiens), is ≤ 100 nM

IC50 of CN1CCN(CCOCCC(=O)N2CCN(c3ncc(C(F)(F)F)cn3)CC2)c2cn[nH]c(=O)c21 , assay on recombinant human Flag-tagged PARP7 (amino acids 456-657) (Homo sapiens), is ≤ 100 nM

IC50 of O=C(CCOCCn1cc(C(F)(F)F)c2c(=O)[nH]ncc21)N1CCN(c2ncc(C(F)(F)F)cn2)CC1 , assay on recombinant human Flag-tagged PARP7 (amino acids 456-657) (Homo sapiens), is ≤ 100 nM

IC50 of CC(C)(COCCC(=O)N1CCN(c2ncc(C(F)(F)F)cn2)CC1)n1nc(C(F)(F)F)c2c(=O)[nH]ncc21 , assay on recombinant human Flag-tagged PARP7 (amino acids 456-657) (Homo sapiens), is ≤ 100 nM

IC50 of CC(COCCC(=O)N1CCN(c2ncc(C(F)(F)F)cn2)CC1)n1ncc2c(=O)[nH]ncc21 (stereo not shown) [Compound 169] , assay on recombinant human Flag-tagged PARP7 (amino acids 456-657) (Homo sapiens), is 100 to 1000 nM

IC50 of [2H]C([2H])(OCCC(=O)N1CCN(c2ncc(C#N)cn2)CC1)C(C)n1nc(C(F)(F)F)c2c(=O)[nH]ncc21 (single isomer, unassigned) [Compound 420] , assay on recombinant human Flag-tagged PARP7 (amino acids 456-657) (Homo sapiens), is ≤ 100 nM

IC50 of Cc1c(C)n(C(C)COCCC(=O)N2CCN(c3ncc(C(F)(F)F)cn3)CC2)c2cn[nH]c(=O)c12 (single isomer, unassigned) [Compound 365] , assay on recombinant human Flag-tagged PARP7 (amino acids 456-657) (Homo sapiens), is ≤ 100 nM
